These measurements were taken from ChEMBL document CHEMBL5244281.

This section presents molecules with their documented MIC values.
- System: Staphylococcus aureus
- procedure.text: Antibacterial activity against Staphylococcus aureus 1199B expressing NorA efflux protein assessed as bacterial growth inhibition incubated for 24 hrs by resazurin based microdilution assay
- Format: functional

# mol.smiles, MIC
measured = [
    ("CC(C)=CC1=C(NCCO)C(=O)c2ccccc2C1=O", "≥ 1020 µg/mL"),
    ("CC(C)=CCC1=C(NCCCO)C(=O)c2ccccc2C1=O", "≥ 1020 µg/mL"),
    ("CC1=CC(=O)c2ccccc2C1=O", "64 µg/mL"),
    ("CC(C)=CCC1=C(NCCO)C(=O)c2ccccc2C1=O", "≥ 1020 µg/mL"),
]
